B1: VDR (parent)
chain: LIKFQVGLKKLNLHEEEHVLLMAI

Variants of: B1
Experiment: protein stability index of a GFP-peptide fusion (GPS, HEK-293T) (PSI 1-6); higher = more stable;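 note: lentivirally expressed fusions sorted by FACS into six bins by GFP to DsRed ratio, PSI derived from sequencing read proportions per bin multiplied by bin number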
Details: c terminus: a fixed tail appended
Reported Endpoint: protein stability index

Before answering, review these 3 worked examples.
{"Ordered Residues": "LRKFQVGLKKLNLHEEEHVLLMAI [I2R]", "Result": 4.27}
{"Ordered Residues": "LITFQVGLKKLNLHEEEHVLLMAI [K3T]", "Result": 2.97}
{"Ordered Residues": "LIKFQVGLKKLNLHEEEHVLQMAI [L21Q]", "Result": 2.02}

Entry LIKFQVGLKKLNLHPEEHVLLMAI [E15P] — recorded protein stability index = 2.38

Entry LIKFQVGLKKLNTHEEEHVLLMAI [L13T] — recorded protein stability index = 3.36

Entry LIKFQVGHKKLNLHEEEHVLLMAI [L8H] — recorded protein stability index = 2.3
